Biological target: Plasmepsin II (Plasmodium falciparum, UniProt P46925)
Sequence (P46925 whole entry): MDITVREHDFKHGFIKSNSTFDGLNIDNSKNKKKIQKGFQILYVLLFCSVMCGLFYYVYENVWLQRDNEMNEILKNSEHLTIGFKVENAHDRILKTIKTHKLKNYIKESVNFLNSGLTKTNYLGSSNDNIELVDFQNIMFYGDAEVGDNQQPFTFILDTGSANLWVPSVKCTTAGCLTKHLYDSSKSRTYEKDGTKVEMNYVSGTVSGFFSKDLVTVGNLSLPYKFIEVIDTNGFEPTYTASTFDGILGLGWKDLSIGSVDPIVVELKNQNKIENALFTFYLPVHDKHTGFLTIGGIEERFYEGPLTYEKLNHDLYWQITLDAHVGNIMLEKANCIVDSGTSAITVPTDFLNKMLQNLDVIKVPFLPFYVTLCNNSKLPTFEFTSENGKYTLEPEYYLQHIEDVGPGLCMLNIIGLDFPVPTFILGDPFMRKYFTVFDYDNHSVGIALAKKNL
Experiment: Inhibition of recombinant Plasmodium falciparum plasmepsin 2 expressed in Escherichia coli using DABCYL-Glu-Arg-Nle-Phe-Leu-Ser-Phe-Pro-EDANS as substrate incubated for 40 mins prior to substrate addition measured after 10 mins by FRET-based fluorometric analysis
measurement-name: IC50 (µM)

Guide cases for IC50, answers given:
{"compound": "Cc1ccc(S(=O)(=O)Nc2ccccc2CNc2cnc3ccccc3c2)cc1", "IC50 / µM": 7}
{"compound": "N=C(S)NN/C(=C\\c1nc(-c2ccccn2)cc2ccccc12)c1ccc(Cl)cc1", "IC50 / µM": 6.45}
{"compound": "O=C(CN(c1cccc(Br)c1)S(=O)(=O)c1ccccc1)Nc1ccc(CSc2ccccc2)cc1", "IC50 / µM": 8.99}

(1) OC(CNCc1ccccc1)Cn1c2ccc(Cl)cc2c2cc(Cl)ccc21 (stereo not given)
(2) Cc1ccccc1N/C(=N\N=C/c1ccc2ccc3ccc(/C=N\N=C(/Nc4ccccc4C)c4ccccn4)nc3c2n1)c1ccccn1
(Q) Higher IC50 between 1 and 2 ? // output: label of the selected item
(A) 1
